IC50 for Poly [ADP-ribose] polymerase 1 (Homo sapiens, UniProt P09874), merged from several publications.
So basically: is IC50 under 0.7 nM? Then rule met. Not under? Then rule not met.

Hi there! Is IC50 for CNC(=O)c1ccc(N2CCN(Cc3ccc4c([nH]c(=O)n5ccnc45)c3F)CC2)c(C)n1 below 0.7 nM, do you know?
rule not met

Please check: IC50 for CCc1cc2ncc(CN3CCN(c4ccc(C(=O)NC)nc4)[C@H]4CC[C@@H]43)cc2[nH]c1=O , strictly under 0.7 nM or not?
rule not met

Please determine if CNC(=O)c1ccc(N2CCN(Cc3ccc4c([nH]c(=O)c5c(F)cnn54)c3F)CC2)c(F)n1 is below 0.7 nM in terms of IC50.
rule met

Hello, is IC50 of the following molecule strictly smaller than 0.7 nM? CCc1cc2ncc(CN3CCN(c4ccc(C(=O)NC)nc4)[C@H]4C[C@H]43)cc2[nH]c1=O
rule not met

Please state whether IC50 is below 0.7 nM for CCc1cc2ncc(CN3CCC(Nc4ccc(C(=O)NC)nc4)C3)cc2[nH]c1=O (stereo unspecified)
rule not met
